This listing pairs compounds with measured Papp.
conditions: pampa; 60.0 min; 50.0 µM
Dear colleague, please return just the value in ×10⁻⁶ cm/s, with no unit written.

Known Papp results, listed for orientation:
INSERT INTO assay_data (structure_as_smiles, measured_parameter, endpoint_result) VALUES
  ('CN[C@H](CC(C)C)C(=O)N[C@H]1C(=O)N[C@@H](CC(N)=O)C(=O)N[C@H]2C(=O)N[C@H]3C(=O)N[C@H](C(=O)N[C@H](C(=O)O)c4cc(O)cc(O)c4-c4cc3ccc4O)[C@H](O[C@H]3C[C@](C)(N)[C@@H](O)[C@H](C)O3)c3ccc(c(Cl)c3)Oc3cc2cc(c3O[C@@H]2O[C@H](CO)[C@@H](O)[C@H](O)[C@H]2O[C@H]2C[C@](C)(NCc3ccc(-c4ccc(Cl)cc4)cc3)[C@@H](O)[C@H](C)O2)Oc2ccc(cc2Cl)[C@H]1O', 'Papp', 12),
  ('Cc1[nH]c(/C=C2\C(=O)Nc3ccc(F)cc32)c(C)c1C(=O)NC[C@H](O)CN1CCOCC1', 'Papp', 42),
  ('CC(C)NC(=O)COc1cccc(-c2nc(Nc3ccc4[nH]ncc4c3)c3ccccc3n2)c1', 'Papp', 226);

Here's the next entry for you.
Sample `CN(C)CCn1nnnc1SCC1=C(C(=O)O)N2C(=O)[C@@H](NC(=O)Cc3csc(N)n3)[C@H]2SC1` — what was its Papp?
6

====

This listing pairs compounds with measured Papp.
conditions: pampa; 60.0 min; 50.0 µM
Dear colleague, please return just the value in ×10⁻⁶ cm/s, with no unit written.

Known Papp results, listed for orientation:
INSERT INTO results (compound, units, endpoint_result) VALUES
  ('CC(=O)Nc1ccc(OC(=O)c2ccccc2OC(C)=O)cc1', '×10⁻⁶ cm/s', 27),
  ('CNCCC=C1c2ccccc2CCc2ccccc21', '×10⁻⁶ cm/s', 253),
  ('Cn1nnnc1Sc1ncnc2scc(-c3ccsc3)c12', '×10⁻⁶ cm/s', 173);

Sample CCC1C(C)=NN=C(c2ccc(OC)c(OC)c2)c2cc(OC)c(OC)cc21 (stereo unspecified) — what was its Papp?
91

Sample N=c1c2c(-c3ccccc3)c(-c3ccccc3)n(Cc3ccccc3)c2ncn1C1CCC(O)CC1 (stereo unspecified) — what was its Papp?
150

Sample `CC(=O)Nc1c2sscc-2n(C)c1=O` — what was its Papp?
16

Sample `Cn1nnnc1Sc1ncnc2scc(-c3cccc(C#N)c3)c12` — what was its Papp?
76

Sample `CNc1ncc(-c2ccc3c(=O)c(C(=O)O)cn(C4CC4)c3c2C)cc1C` — what was its Papp?
3

====

This listing pairs compounds with measured Papp.
details: pampa; 60.0 min; 50.0 µM
Dear colleague, please return just the value in ×10⁻⁶ cm/s, with no unit written.

Known Papp results, listed for orientation:
INSERT INTO assay_data (compound, measured_parameter, endpoint_result) VALUES
  ('COC(=O)c1cccc(Cn2cnc3c(c(-c4ccccc4)c(-c4ccccc4)n3CCc3ccccc3)c2=N)c1', 'Papp', 27),
  ('Cc1cccc(-c2csc3ncnc(Sc4nnnn4C)c23)c1', 'Papp', 225),
  ('CC[n+]1c(-c2ccccc2)c2cc(N)ccc2c2ccc(N)cc21', 'Papp', 2),
  ('COc1ccc(Cn2c(-c3ccccc3)c(-c3ccccc3)c3c(=N)n(CC(OC)OC)cnc32)cc1', 'Papp', 272),
  ('Cc1ccc(CN2C(=O)C(=O)c3cc(Br)cc(C)c32)cc1', 'Papp', 98.5),
  ('CC(C)c1cc(-c2n[nH]c(=O)n2-c2ccc3c(ccn3C)c2)c(O)cc1O', 'Papp', 79.5),
  ('O=C(c1ccc(-c2ncc3cnc(-c4ccccc4)cn23)cc1)N1CCS(=O)(=O)CC1', 'Papp', 20),
  ('C=CC1=C(C(=O)O)N2C(=O)[C@@H](NC(=O)/C(=N\OCC(=O)O)c3csc(N)n3)[C@H]2SC1', 'Papp', 2),
  ('N=c1c2c(-c3ccccc3)c(-c3ccccc3)n(CCc3ccccc3)c2ncn1CC1CCCO1 (centres undefined)', 'Papp', 269),
  ('CO/N=C(\C(=O)N[C@@H]1C(=O)N2C(C(=O)OCOC(=O)C(C)(C)C)=C(/C=C\c3scnc3C)CS[C@H]12)c1csc(N)n1', 'Papp', 11);

Sample `O=C(CCl)Nc1cccc(NC2=NS(=O)(=O)c3ccccc32)c1` — what was its Papp?
5.9

Sample CCc1ccc(C2C(C(=O)Nc3ccccc3OC)=C(C)Nc3c(C(=O)Nc4ccc(C)cc4)cnn32)cc1 (centres undefined) — what was its Papp?
26

Sample `N=c1c2c(-c3ccccc3)c(-c3ccccc3)n(Cc3ccccc3)c2ncn1CCN` — what was its Papp?
78
